Data origin: patent US20240209076A1

target: human IL-6 (human, UniProt P05231 30-212); assay: SPR (Biacore), supernatant antibody on Protein A chip, IL-6 flowed, 37 C
Sequence (P05231 30-212 limits assumed): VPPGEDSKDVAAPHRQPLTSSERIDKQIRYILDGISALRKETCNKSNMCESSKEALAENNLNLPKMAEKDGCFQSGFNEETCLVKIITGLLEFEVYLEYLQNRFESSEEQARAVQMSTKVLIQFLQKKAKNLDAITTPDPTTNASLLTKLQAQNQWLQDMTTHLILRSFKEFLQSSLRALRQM
observation_type: kon (M⁻¹ s⁻¹)
Number in M⁻¹ s⁻¹, nothing else.

1) anti-IL-6 antibody, heavy chain T63L, G66D / light chain M32L, M50D, N52S, M88Q (antibody, human IgG1, V domains shown, Human IgG1) VH: EVQLVESGGGLVQPGGSLRLSCAASGFTFSPFAMSWVRQAPGKGLEWVAKISPGGSWTYYSDLVTDRFTFSLDTSKSTAYLQMNSLRAEDTAVYYCARQLWGYYALDIWGQGTLVTVSS VL: DIQLTQSPSSLSASVGDRVTITCSASISVSYLYWYQQKPGKAPKLLIYDDSSLASGVPSRFSGSGSGTDFTLTISSLQPEDFATYYCQQWSGYPYTFGQGTKVEIK: 1.6e+06

Now turn to the next binder.
I have this binder here, anti-IL-6 antibody, heavy chain S35Y, G66D / light chain M32L, M50D, N52S, M88Q (antibody, human IgG1, V domains shown, Human IgG1) VH: EVQLVESGGGLVQPGGSLRLSCAASGFTFSPFAMYWVRQAPGKGLEWVAKISPGGSWTYYSDTVTDRFTFSLDTSKSTAYLQMNSLRAEDTAVYYCARQLWGYYALDIWGQGTLVTVSS VL: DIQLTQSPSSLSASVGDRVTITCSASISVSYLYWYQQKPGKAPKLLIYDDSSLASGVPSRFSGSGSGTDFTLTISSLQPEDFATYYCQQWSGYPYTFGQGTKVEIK , and I need its recorded kon.
1.18e+06
